Below, each of the compounds is paired with its reported melting point value.
assay_endpoint: melting point

compound | result
ON=C(Cl)c1ccc(C(Cl)=NO)cc1 | 178 to 180 °C
Nc1ccc2c(=O)[nH]c(=O)n(CCCCN3CCC(OC(c4ccccc4)c4ccccc4)CC3)c2c1 | 162 to 164 °C
Cc1c(CC(=O)O)c2cc(O)ccc2n1C(=O)c1ccc(F)c(F)c1 | 143 to 145 °C
CCCCCCCCCC=C1OC(=O)N(CCCCSc2cccc3nccn23)C1=O | 46 to 48 °C
CCn1nc(OC2COCCC2=O)c(-c2ccc(F)cc2)c1-c1ccc(S(C)(=O)=O)cc1 (centres undefined) | 181 to 182 °C
C=CCOc1ccc2ccc(C(=O)OCC)cc2c1 | 60 to 61 °C
O=C1NC(N2CCN(c3cnccn3)CC2)c2ccccc21 (centres undefined) | 242 to 246 °C
CC(C)n1cc(-c2nc(C(=O)O)c(N)nc2-c2ccc(F)cc2)ccc1=O | 222 °C
CS(=O)(=O)C(=C1CN(C(c2ccccc2)c2ccccc2)C1)c1cc(C(F)(F)F)cc(C(F)(F)F)c1 | 192 °C
